# Assay notes: in vitro
# Assay context: human, hela cells, % viability
Assay readout: viability at 28.5 h, 10 µM (%)
Your answer is read as %, so omit the unit and give the number.

Compound: CCc1ccc2[nH]c3nc(NN)nnc3c2c1 [CBK262734]
Assay readout: viability at 28.5 h, 10 µM
Result units: %
Observed value: 65.1
--
Compound: CCOc1cc(CNCc2ccc(C(=O)O)cc2)ccc1OC [CBK270029C]
Assay readout: viability at 28.5 h, 10 µM
Result units: %
Observed value: 89.7
--
Compound: CN(CCN1CCOCC1)c1nc2c(c(=O)[nH]1)Cc1ccccc1OC2 [CBK306783]
Assay readout: viability at 28.5 h, 10 µM
Result units: %
Observed value: 75.4
--
Compound: O=C(NC(c1ccccc1)c1ccsc1)C1CCN(S(=O)(=O)c2cccc(Cl)c2)CC1 (centres unmarked) [CBK060188]
Assay readout: viability at 28.5 h, 10 µM
Result units: %
Observed value: 97.7

Query compound follows.
Endpoint output: viability at 28.5 h, 10 µM of O=C(O)C1C2CC(c3ccccc3)C(C2)C1C(=O)O (centres unmarked) [CBK287147] . Value?
95.7
